Tested on: Ba/F3 cells expressing L858R/T790M/C797S (EGFR-LTC)
Assay: Growth inhibition (GI50) of Ba/F3 cells expressing L858R/T790M/C797S (EGFR-LTC), Celltiter glo
Format: cell-based
Conditions: Mus musculus, BaF3, 72 h
Source text: In this experimental example, a determination was made as to whether the compounds prepared in Examples 1-283 have the ability to inhibit the growth of Ba/F3 cells expressing EGFR-wt, del19/T790M/C797S (EGFR-DTC), L858R/T790M/C797S (EGFR-LTC), del19/T790M (EGFR-DT), and L858R/T790M (EGFR-LT) variants. The parental Ba/F3 cell line is a population of cells that are not introduced with EGFR variants. […]

MOLECULE	GI50
COc1cc(N2CCC(N3CCCN(C)CC3)CC2)c(Cl)cc1Nc1ncc(Br)c(Nc2cc(Cl)ccc2NS(C)(=O)=O)n1	1 to 25 nM
CN1CCN(C2CCN(c3cc(Cl)c(Nc4ncc(Br)c(Nc5cc6c(cc5N(C)S(C)(=O)=O)CCO6)n4)cc3Cl)CC2)CC1	25 to 100 nM
COc1cc(N2CCC(N3CCN(C4CC4)CC3)CC2)c(C)cc1Nc1ncc(Br)c(Nc2cc3c(cc2NS(C)(=O)=O)CCO3)n1	1 to 25 nM
CC(=O)Nc1cc(Cl)c(Cl)cc1Nc1nc(Nc2ccc(N3CCOCC3)nc2)ncc1Cl	2000 to 10000 nM
Cc1cc(Nc2ncc(Cl)c(Nc3cc4c(cc3NS(C)(=O)=O)CCO4)n2)c(Cl)cc1N1CCC(N2CCCN(C)CC2)CC1	1 to 25 nM
CN1CCN(C2CCN(c3cc(Cl)c(Nc4ncc(Br)c(Nc5cc(Cl)ccc5N(C)S(C)(=O)=O)n4)cc3Cl)CC2)CC1	25 to 100 nM
COc1cc(N2CCC(N3CCN(C)CC3)CC2)c(Cl)cc1Nc1ncc(Br)c(Nc2ccc3nccnc3c2P(C)(C)=O)n1	25 to 100 nM
CN1CCN(C2CCN(c3ncc(Nc4ncc(Br)c(Nc5cc6c(cc5NS(C)(=O)=O)CCO6)n4)cc3F)CC2)CC1	100 to 500 nM
CNS(=O)(=O)c1ccccc1Nc1nc(Nc2cc(C)c(N3CCC(N4CCN(C)CC4)CC3)nc2OC)ncc1Cl	100 to 500 nM
CN1CCN(C2CCN(c3cc(Cl)c(Nc4ncc(Cl)c(Nc5cc6c(cc5NS(C)(=O)=O)CCO6)n4)cc3Cl)CC2)CC1	1 to 25 nM
COc1cc(N2CCC(N3CCN(C)CC3)CC2)c(C)cc1Nc1ncc(Cl)c(N(c2ccccc2NS(C)(=O)=O)S(C)(=O)=O)n1	25 to 100 nM
COc1nc(N2CCC(N3CCN(C)CC3)CC2)c(C)cc1Nc1ncc(Cl)c(Nc2ccc(F)cc2NS(C)(=O)=O)n1	100 to 500 nM
Cc1cc(Nc2ncc(Cl)c(Nc3cc(Cl)ccc3NS(C)(=O)=O)n2)c(Cl)cc1N1CCC(N2CCCN(C)CC2)CC1	2000 to 10000 nM
COc1cc(N2CCC(N3CCCC(N(C)C)C3)CC2)c(Br)cc1Nc1ncc(Cl)c(Nc2cc3c(cc2NS(C)(=O)=O)CCO3)n1 (stereo not drawn)	1 to 25 nM
COc1cc(N2CCC(N3CCN(C4CC4)CC3)CC2)c(C)cc1Nc1ncc(Cl)c(Nc2cc(C(F)(F)F)ccc2NS(C)(=O)=O)n1	500 to 2000 nM
COc1cc(N2CCC(N3CCN(C)CC3)CC2)c(Cl)cc1Nc1ncc(Br)c(Nc2cc(Cl)c(F)cc2NS(C)(=O)=O)n1	25 to 100 nM
COc1nc(N2CCN(C3COC3)CC2)ccc1Nc1ncc(Cl)c(Nc2ccc(F)cc2NS(C)(=O)=O)n1	500 to 2000 nM
CN1CCN(C2CCN(c3ncc(Nc4ncc(Cl)c(N(c5ccc6scnc6c5NS(C)(=O)=O)S(C)(=O)=O)n4)cc3F)CC2)CC1	500 to 2000 nM
COc1cc(N2CCC(N3CCN(C)CC3)CC2)c(C)cc1Nc1ncc(Br)c(Nc2cc(Cl)ccc2N(C)S(C)(=O)=O)n1	1 to 25 nM
COc1cc(N2CCC(N3CCCC(N(C)C)C3)CC2)c(Cl)cc1Nc1ncc(Br)c(Nc2ccc(F)cc2NS(C)(=O)=O)n1 (stereo not drawn)	25 to 100 nM
COc1nc(N2CCC(N(C)C)C2)ccc1Nc1ncc(Cl)c(Nc2ccc(F)cc2NS(C)(=O)=O)n1 (stereo not drawn)	100 to 500 nM
COc1cc(N2CCN(C)CC2)ccc1Nc1ncc(Cl)c(Nc2ccc3ncccc3c2NS(C)(=O)=O)n1	500 to 2000 nM
COc1cc(N2CCC(N3CCC(N(C)C)C3)CC2)c(C)cc1Nc1ncc(Br)c(Nc2cc3c(cc2N(C)S(C)(=O)=O)CCO3)n1 (stereo not drawn)	25 to 100 nM
COc1nc(N2CCC(N3CCN(C)CC3)CC2)ccc1Nc1ncc(Cl)c(N(C)c2cc(Cl)c(Cl)cc2N(C)C(C)=O)n1	500 to 2000 nM
COc1cc(N2CCC(N3CCN(C)CC3)CC2)c(Cl)cc1Nc1ncc(Cl)c(Nc2cc(C(C)C)ccc2NS(C)(=O)=O)n1	500 to 2000 nM
COc1cc(N2CCC(N3CCN(C)CC3)CC2)c(F)cc1Nc1ncc(Cl)c(Nc2cc3c(cc2NS(C)(=O)=O)CCO3)n1	100 to 500 nM
COc1cc(N2CCC(N3CCN(C)CC3)CC2)c(F)cc1Nc1ncc(Br)c(Nc2cc(C)ccc2NS(C)(=O)=O)n1	100 to 500 nM
